Overview of reported cell viability across a group of molecules:
System: myeloid leukemia patient primary cells Pat.4
Experiment: cell viability (% survival relative to DMSO control); higher = less cytotoxic
Details: 1000 nM; 72 h

O=C(O)CC[N+](=O)[O-] [3-nitropropionic acid] :: 95.6%
O=C(/C=C/c1ccc(O)c(O)c1)OCCc1ccccc1 [Caffeic acid phenethyl ester] :: 16.7%
CN(CCOc1ccc(Cc2sc(O)nc2O)cc1)c1ccccn1 [Rosiglitazone] :: 94.1%

Exercise: State, for myeloid leukemia patient primary cells Pat.4, measured cell viability of the molecule listed here: CCN(CC)C(=S)SSC(=S)N(CC)CC [Disulfiram]
Key: 0.934%

Exercise: State, for myeloid leukemia patient primary cells Pat.4, measured cell viability of the molecule listed here: O=c1cc(N2CCOCC2)oc2c(-c3ccccc3)cccc12
Key: 63.1%

Exercise: State, for myeloid leukemia patient primary cells Pat.4, measured cell viability of the molecule listed here: CC(=O)Nc1nc(C)c(-c2ccc(Cl)c(S(=O)(=O)NCCO)c2)s1 [PIK93]
Key: 10.6%

Exercise: State, for myeloid leukemia patient primary cells Pat.4, measured cell viability of the molecule listed here: CO[C@H]1C[C@@H]2CC[C@@H](C)[C@@](O)(O2)C(=O)C(=O)N2CCCC[C@H]2C(=O)O[C@H]([C@H](C)C[C@@H]2CC[C@@H](OCCO)[C@H](OC)C2)CC(=O)[C@H](C)/C=C(\C)[C@@H](O)[C@@H](OC)C(=O)[C@H](C)C[C@H](C)/C=C/C=C/C=C/1C [Everolimus]
Key: 47.3%

Exercise: State, for myeloid leukemia patient primary cells Pat.4, measured cell viability of the molecule listed here: CC(C)(C)c1ccc(S(=O)(=O)NCc2ccc(C(=O)Nc3cccnc3)cc2)cc1 [STF-31]
Key: 1.84%

----------
System: KG-1
Assay: cell viability (% survival relative to DMSO control, bortezomib = 0%); higher = less cytotoxic
Conditions: 10000 nM; 72 h
property: cell viability (%)
A number alone suffices; assume %.

Exercise: State, for KG-1, measured cell viability of the compound listed here: CCN(CC)C(=S)SSC(=S)N(CC)CC [Disulfiram]
Key: 22

Exercise: State, for KG-1, measured cell viability of the compound listed here: N#C/C(=C\c1ccc(O)cc1)C(=O)O [alpha-cyano-4-hydroxycinnamic acid]
Key: 103

Exercise: State, for KG-1, measured cell viability of the compound listed here: CCCCCCCC/C=C\CCCCCCCC(=O)Nc1ccccc1 [Octadec-9-Enoic Acid Phenylamide]
Key: 97.4

Exercise: State, for KG-1, measured cell viability of the compound listed here: CC(=O)Nc1nc(C)c(-c2ccc(Cl)c(S(=O)(=O)NCCO)c2)s1 [PIK93]
Key: 32.6

Exercise: State, for KG-1, measured cell viability of the compound listed here: O=C(O)CC[N+](=O)[O-] [3-nitropropionic acid]
Key: 104

Exercise: State, for KG-1, measured cell viability of the compound listed here: Cc1cc2c(C(C)C)c(O)c(O)c(C=O)c2c(O)c1-c1c(C)cc2c(C(C)C)c(O)c(O)c(C=O)c2c1O [Gossypol]
Key: 5.89

Exercise: State, for KG-1, measured cell viability of the compound listed here: C[C@H]1c2cccc(O)c2C(=O)C2C(=O)[C@]3(O)C(=O)C(C(N)=O)C(=O)[C@@H](N(C)C)[C@@H]3[C@@H](O)[C@@H]21 (stereo not given in full) [Doxycycline]
Key: 87.9

Exercise: State, for KG-1, measured cell viability of the compound listed here: Cn1cc(-c2ccncc2)c(-c2ccc(OCc3ccc4ccccc4n3)cc2)n1
Key: 87.4

Exercise: State, for KG-1, measured cell viability of the compound listed here: CCCCCN(C)CCC(O)(P(=O)(O)O)P(=O)(O)O [Ibandronate]
Key: 111

----------
Overview of reported cell viability across a group of compounds:
System: myeloid leukemia patient primary cells Pat.8
Assay: cell viability (% survival relative to DMSO control); higher = less cytotoxic
Settings: 1000 nM; 72 h
A number alone suffices; assume %.

Exercise: Check the records and state cell viability for C=CCN(C)CCCCCCOc1ccc(C(=O)c2ccc(Br)cc2)c(F)c1.O=C(O)/C=C/C(=O)O [Ro 48-8071 fumarate]
Key: 92.1

Exercise: Check the records and state cell viability for CO[C@H]1C[C@@H]2CC[C@@H](C)[C@@](O)(O2)C(=O)C(=O)N2CCCC[C@H]2C(=O)O[C@H]([C@H](C)C[C@@H]2CC[C@@H](OC(=O)C(C)(CO)CO)[C@H](OC)C2)CC(=O)[C@H](C)/C=C(\C)[C@@H](O)[C@@H](OC)C(=O)[C@H](C)C[C@H](C)/C=C/C=C/C=C/1C
Key: 88.4

----------
Tested on: HL-60
Test: cell viability (% survival relative to DMSO control); higher = less cytotoxic
Details: 1 µM; 72 h; co-treatment: AZD3965 100 nM
property: cell viability (%)
A number alone suffices; assume %.

Examples with answers:
N[C@@H](CC(=O)N1CCn2c(nnc2C(F)(F)F)C1)Cc1cc(F)c(F)cc1F :: 103
CCOC(=O)c1sc(NC(=O)c2ccco2)c(SC#N)c1C :: 106
C=CC(=O)c1ccc(O)cc1 :: 99.4

Next compound, please.
Exercise: Check the records and state cell viability for CC[C@H](C)[C@H](N)C(=O)N1CCSC1
Key: 98.4

----------
System: HL-60
Test: cell viability (% survival relative to DMSO control, bortezomib = 0%); higher = less cytotoxic
Details: 1000 nM; 72 h
Overview of reported cell viability across a group of compounds:
A number alone suffices; assume %.

Examples with answers:
OC[C@H]1O[C@@H](n2cnc3c2N=CNC[C@H]3O)C[C@@H]1O [Pentostatin] :: 100
N[C@@H](CC(=O)N1CCn2c(nnc2C(F)(F)F)C1)Cc1cc(F)c(F)cc1F [Sitagliptin] :: 91.3
Cc1c(Cl)cccc1S(=O)(=O)Nc1nc(CC(=O)N2CCN(C)CC2)cs1 [BVT-2733] :: 122
CCCCCN(C)CCC(O)(P(=O)(O)O)P(=O)(O)O [Ibandronate] :: 90.5

Next compound, please.
Exercise: Check the records and state cell viability for O=C1C(SCCO)=C(SCCO)C(=O)c2ccccc21
Key: 101

----------
System: NOMO-1
Experiment: cell viability (% survival relative to DMSO control, bortezomib = 0%); higher = less cytotoxic
Settings: 1000 nM; 72 h
Overview of reported cell viability across a group of molecules:
A number alone suffices; assume %.

Examples with answers:
Cc1nc(-c2ccccc2)sc1C(=O)Nc1ccc(S(N)(=O)=O)cc1 :: 101
CCCc1nc(C)c2c(=O)nc(-c3cc(S(=O)(=O)N4CCN(CC)CC4)ccc3OCC)[nH]n12 :: 101
O=c1c(-c2ccc(O)cc2)coc2cc(O[C@@H]3O[C@H](CO)[C@@H](O)[C@H](O)[C@H]3O)ccc12 :: 101

Exercise: Check the records and state cell viability for O=C([O-])CC(O)(C(=O)[O-])C(O)C(=O)[O-].[K+].[K+].[K+] (centres undefined) [Hydroxycitrate]
Key: 95.8

----------
System: HEL
Test: cell viability (% survival relative to DMSO control, bortezomib = 0%); higher = less cytotoxic
Conditions: 10000 nM; 72 h
property: cell viability (%)
A number alone suffices; assume %.

Examples with answers:
O=C1C(SCCO)=C(SCCO)C(=O)c2ccccc21 :: -0.489
O=C([O-])CC(O)(C(=O)[O-])C(O)C(=O)[O-].[K+].[K+].[K+] (centres undefined) [Hydroxycitrate] :: 99.6
CCCCCOC(=O)Nc1nc(=O)n([C@@H]2O[C@H](C)[C@@H](O)[C@H]2O)cc1F :: 87.6

Exercise: Check the records and state cell viability for Cc1nc(-c2ccccc2)sc1C(=O)Nc1ccc(S(N)(=O)=O)cc1
Key: 105

Exercise: Check the records and state cell viability for O=c1c(-c2ccc(O)cc2)coc2cc(O[C@@H]3O[C@H](CO)[C@@H](O)[C@H](O)[C@H]3O)ccc12
Key: 102

Exercise: Check the records and state cell viability for CC[C@H](C)[C@H](N)C(=O)N1CCSC1
Key: 105

Exercise: Check the records and state cell viability for Cc1cc(C(=O)NNCc2ccccc2)no1
Key: 103

Exercise: Check the records and state cell viability for O=C(/C=C/c1ccc(O)c(O)c1)OCCc1ccccc1
Key: 24.8

Exercise: Check the records and state cell viability for C[C@H]1c2cccc(O)c2C(=O)C2C(=O)[C@]3(O)C(=O)C(C(N)=O)C(=O)[C@@H](N(C)C)[C@@H]3[C@@H](O)[C@@H]21 (some centres undefined)
Key: 75.3

----------
Overview of reported cell viability across a group of molecules:
Tested on: THP-1
Assay: cell viability (% survival relative to DMSO control, bortezomib = 0%); higher = less cytotoxic
Conditions: 1000 nM; 72 h
A number alone suffices; assume %.

O=C(Nc1ccccc1)c1cc([N+](=O)[O-])ccc1Cl :: 93.7
O=c1cc(-c2ccccc2)oc2c1ccc1ccccc12 :: 102
C=CC(=O)c1ccc(O)cc1 :: 99.4

Exercise: Check the records and state cell viability for Cc1cc(C(=O)NNCc2ccccc2)no1
Key: 97.4

Exercise: Check the records and state cell viability for CN1CCN(CCCN2c3ccccc3Sc3ccc(C(F)(F)F)cc32)CC1
Key: 87.6

Exercise: Check the records and state cell viability for c1cc(-c2cnn3cc(-c4ccc(OCCN5CCCCC5)cc4)cnc23)ccn1
Key: 96.2

Exercise: Check the records and state cell viability for C[C@H]1c2cccc(O)c2C(=O)C2C(=O)[C@]3(O)C(=O)C(C(N)=O)C(=O)[C@@H](N(C)C)[C@@H]3[C@@H](O)[C@@H]21 (some centres undefined)
Key: 105

Exercise: Check the records and state cell viability for CCOC(=O)c1sc(NC(=O)c2ccco2)c(SC#N)c1C
Key: 94.4

Exercise: Check the records and state cell viability for Cc1[nH]nc(C(F)(F)F)c1Cc1sc2c(c1C(=O)N1C[C@](C)(O)CO1)c(=O)n(C)c(=O)n2C(C)C
Key: 99.5
